# System: MS2 coat protein
# assay-remarks: apparent Kd, MS2 coat protein; higher = weaker binding; RNA-MaP array; tryptophan 2.4 mM where present
# test-parameters: designed as: ON switch for tryptophan; no ligand

[
  {
    "construct-sequence": "AGGUACGGAAUCCUCAUGUAGUCGUACCAACGAGGACCGGUACGGCCGCCACUCGAAUAAACAUGAGGAUCACCCAUGUAAUAAU",
    "apparent Kd / nM": 34.4
  },
  {
    "construct-sequence": "ACGUUUUAGUCGGCCGCCACUGUUUUCAUGUUCAACAUGAGGAUCACCCAUGUACCUUUUUUUAUCAGGACCGGGACGUAAUAGA",
    "apparent Kd / nM": 68.5
  },
  {
    "construct-sequence": "AGCACGGUGAUGGUAGCCGGACGAUAAGUACGAGGACCGGUACGGCCGCCACUCGAAGUCCUACGACAUGAGGAUCACCCAUGUA",
    "apparent Kd / nM": 33.2
  },
  {
    "construct-sequence": "AGCCACUCGAGUGAUCCUCACGAGUGGCUACGAGGACCGGUACGGCCGCCACUCGAAUUAACAUGAGGAUCACCCAUGUAAUCUA",
    "apparent Kd / nM": 81
  },
  {
    "construct-sequence": "AGGUACAGCAGGUGAUUCUGGCUGUACCAACGAGGACCGGUACGGCCGCCACUCGAAUAAACAUGAGGAUCACCCAUGUACAAAU",
    "apparent Kd / nM": 24.6
  }
]

* * *

apparent Kd values for the sequences below.
# Test system: MS2 coat protein
# assay-remarks: apparent Kd, MS2 coat protein; higher = weaker binding; RNA-MaP array; FMN 200 µM where present
# test-parameters: designed as: OFF switch for flavin mononucleotide; no ligand
assay-readout: apparent Kd

[
  {
    "construct-sequence": "CAGUCUACAGGAUAUACAUGAGGAUCACCCAUGUUUAUCAACUUUCAGUAAUCCAUAUGUAGAAGGGUAGACUG",
    "result": "23.9 nM"
  },
  {
    "construct-sequence": "GGGCAAUUAGGAUAUACAUGAGGAUCACCCAUGUGGAAGCCCGGACAGGUAAUCCACUGUAGAAGGGAUUGCCA",
    "result": "12 nM"
  },
  {
    "construct-sequence": "GCUGACGAUGUAGGAUAUCUCGACGAUAAGUCGAGAGAAGGACAUGAGGAUCACCCAUGUAAACUCACGUCAGCGAGGAAACUC",
    "result": "16.1 nM"
  },
  {
    "construct-sequence": "GCGUACUGAGGAUAUACAUGAGGAUCACCCAUGUGACACAGCGUUUAGUGAUGAAUUUGUAGAAGGCAGUAGGC",
    "result": "146 nM"
  }
]

* * *

// apparent Kd lookup, one value per entry
# System: MS2 coat protein
# assay-remarks: apparent Kd, MS2 coat protein; higher = weaker binding; RNA-MaP array; FMN 200 µM where present
# test-parameters: ligand present: flavin mononucleotide; designed as: OFF switch for flavin mononucleotide
assay-readout: apparent Kd (nM)

[
  {
    "construct-sequence": "GCUGGGUCAGGAUAUACGAGAUCGAAAGAUCGAAGAUCCGUACAUGAGGAUCACCCAUGUAGAAGGGACUGGGC",
    "recorded-number": 44.7
  },
  {
    "construct-sequence": "AUCCGGCGUGUAGGAUAUGGAAAAAAUUAGGAUCCAGAAGGACAUGAGGAUCACCCAUGUACAUGUAAACAGUCAUCACCGGAA",
    "recorded-number": 51.7
  },
  {
    "construct-sequence": "ACUGGGCGCCAACCCAUGUCUAUGGAGGAUAUUACUGCCGGUAUCUCACAUGAGGAUCACCCAUGUAAGAAGGCCAUAAGCACA",
    "recorded-number": 176
  },
  {
    "construct-sequence": "GAUAAACAUGAGGAUCACCCAUGUCAGGAUAUGCGCUAGCUAGCUAGCUAGCUAGCUAGCAGAAGGGACACUAC",
    "recorded-number": 35
  },
  {
    "construct-sequence": "UGAUCGAGAGAUCUUAGAUUCUGGUAGGAUAUACAUUAUGUAAAAUUUACAUGAGGAUCACCCAUGUAGAAGGACUAGAGUCUA",
    "recorded-number": 14.8
  },
  {
    "construct-sequence": "GCACUGGAUGUAGGAUAUCAGGACGAUAAGUCCUGAGAAGGACAUGAGGAUCACCCAUGUGCUUAAACCAGUGCAUAUAAUAUA",
    "recorded-number": 18.4
  },
  {
    "construct-sequence": "GGAUAGGACAGAGGAUAUACGUGCUAGAGAUACUAGCAAAAUUUCCUGACAUGAGGAUCACCCAUGUAGAAGGCUGUCCUAUCG",
    "recorded-number": 15.5
  },
  {
    "construct-sequence": "GUGGUACAUGAGGAUCACCCAUGUUAGGAUAUCGCGUGAGGUUUUACUUCCGCACACACGAGAAGGGACGUCUU",
    "recorded-number": 28
  },
  {
    "construct-sequence": "GGUUUGGGAGGAUAUGGCUUGUUUGACAUGAGGAUCACCCAUGUAAGUGGAUCUUCCGGGCCAGAAGGCUCGGGCC",
    "recorded-number": 188
  },
  {
    "construct-sequence": "UAGUAUAAGGGCAUUAAACAUGAGGAUCACCCAUGUACGUUAGAGGAUAUGCAUUUCAGUUGAGAGUAGAAGGUUAGAGAAGGG",
    "recorded-number": 47.4
  },
  {
    "construct-sequence": "GUGAAACAUGAGGAUCACCCAUGUGAGGAUAUGAUACUAUGUACUUCGGUACAUAGUAUCAGAAGGCACAGUGA",
    "recorded-number": 282
  },
  {
    "construct-sequence": "AGAUAAUAGCAGAAGGGCCAUGGACAUGAGGAUCACCCAUGUAACGGUGGACUCAUUUGUGAAGGGCAGGAUAUGCAAUAAAGA",
    "recorded-number": 13.4
  },
  {
    "construct-sequence": "UGGCUACAUGAGGAUCACCCAUGUCAGGAUAUGCCGUCGGAUUGCCUUCGUCGUUCGGGUAGAAGGGACUGCGG",
    "recorded-number": 24.1
  },
  {
    "construct-sequence": "GGGCCGAUAGGAUAUACAUGAGGAUCACCCAUGUAUGCUUAGAAGCGGCAAUCCUUAUGUAGAAGGGUCAGGCU",
    "recorded-number": 33.4
  },
  {
    "construct-sequence": "UAUAUUUAUGUAGGAUAUGGUAUAUAAAAUAUACCAGAAGGACAUGAGGAUCACCCAUGUAUGAAAUUCCAUAAUAAGCGUGUA",
    "recorded-number": 13.8
  },
  {
    "construct-sequence": "CGAUCGGAAGGAUAUACACCUCACGUCAAACGGACAACCGGACAUGAGGAUCACCCAUGUAGAAGGUCCAAAAU",
    "recorded-number": 238
  },
  {
    "construct-sequence": "CUAUUACGAGGAUAUGAUUUAAAUAACAUGAGGAUCACCCAUGUUUUUACGUUAUUUUAUUUAGAAGGCGUAUAGU",
    "recorded-number": 31
  },
  {
    "construct-sequence": "GCAUAUCAGGGAGGAUAUGACAUGAGGAUCACCCAUGUAAUUAUGGCUCUGUCAGAAGGCCCAUCGUCACUAUAGUGACGAGAC",
    "recorded-number": 139
  },
  {
    "construct-sequence": "GUGACGAAUGUAGGAUAUGCUGAGGAAUACUCAGCAGAAGGACAUGAGGAUCACCCAUGUACUAUGAGUGAAUAAUAACGUCAC",
    "recorded-number": 881
  },
  {
    "construct-sequence": "UUUGAAUAAGUGAGGAUAUACUGUUAGUAUUGAUUGUAGAAGGUACAUGAGGAUCACCCAUGUUUAGUAUUUAU",
    "recorded-number": 15.9
  },
  {
    "construct-sequence": "GCAGUACGCCUGGCAAUUUGCAAGCAGGAUAUCAGGCACCGUGAGACAUGAGGAUCACCCAUGUCUGAGAAGGGCUGGAGUUGC",
    "recorded-number": 18.9
  },
  {
    "construct-sequence": "GGCGGUCGGGAGGAUAUUCGGGCUGUUUGGCUUGGAGAAGGCUCGACAUGAGGAUCACCCAUGUUGGUGUUCUU",
    "recorded-number": 40.8
  },
  {
    "construct-sequence": "GGUUGUCAAAGACAACCAUAACGAACAUGAGGAUCACCCAUGUAGGAUAUGCUUCUCAAAGAGAAGCAGAAGGACAUGUGUCUU",
    "recorded-number": 177
  },
  {
    "construct-sequence": "UAUUUAAGAGGAUAUACAUGAGGAUCACCCAUGUAUAUUAAUAUACAUGAUUUUUUAUGUAGAAGGCUUGGGUA",
    "recorded-number": 58.4
  },
  {
    "construct-sequence": "GCGUACAUAUCAGGAUAUCAUUGAAUGGAUUAACACAGUGAAUACAUGAGGAUCACCCAUGUGCUUGAGAAGGGAUUACAACGC",
    "recorded-number": 9.4
  },
  {
    "construct-sequence": "AUUUCAUUCCUUCGACCAUUACCGAGAAGGGUCCACAUGAGGAUCACCCAUGUGGUCCUGAGCGGACAGGAUAUCGGAGUCGGG",
    "recorded-number": 17.7
  },
  {
    "construct-sequence": "AAAAAGCGAGGAUAUACAUAGCUAAGACGUGUGAGCGAAAAACAUGAGGAUCACCCAUGUAGAAGGCGCAAAAA",
    "recorded-number": 17.9
  },
  {
    "construct-sequence": "UAUAUAUAGUAAGGAUAUGUAAUUAUUUAAUAAACAGAAGGUACUGACAUGAGGAUCACCCAUGUUUUAGUGUGGGCAUGUAGA",
    "recorded-number": 135
  },
  {
    "construct-sequence": "CUCGUCUGGAAACGGAGCGGCCAACAUGAGGAUCACCCAUGUGAGGAUAUGCCUACUAAAAGUAGGCAGAAGGCGCACUUGGCA",
    "recorded-number": 34.1
  }
]
